# Measurement target: Glycogen synthase kinase-3 beta (Homo sapiens, UniProt P49841)
# Sequence (P49841 whole entry, canonical isoform): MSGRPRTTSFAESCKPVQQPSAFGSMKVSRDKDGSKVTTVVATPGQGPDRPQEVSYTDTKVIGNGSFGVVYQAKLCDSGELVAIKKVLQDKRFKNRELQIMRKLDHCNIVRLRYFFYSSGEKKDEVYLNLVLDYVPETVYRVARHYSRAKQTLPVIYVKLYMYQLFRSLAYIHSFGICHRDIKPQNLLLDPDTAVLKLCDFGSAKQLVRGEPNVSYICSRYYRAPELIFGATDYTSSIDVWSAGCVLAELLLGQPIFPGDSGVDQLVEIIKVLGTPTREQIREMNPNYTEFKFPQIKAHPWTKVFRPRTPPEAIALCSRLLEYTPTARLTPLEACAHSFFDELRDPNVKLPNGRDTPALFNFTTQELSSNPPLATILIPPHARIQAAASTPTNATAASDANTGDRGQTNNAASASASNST
# Assay notes: Inhibition of GSK3B isoform 2 in human HeLa cells lysate pre incubated for 15 mins followed by ATP acyl phosphate probe addition and measured after 10 mins by LC-MS/MS analysis
# Format: subcellular
pIC50: −log10 of the molar value.
Result type: pIC50

1) CCOc1cc(N2CCC(O)CC2)ccc1Nc1ncc2c(n1)N(C)c1ccccc1C(=O)N2C: < 4.30

====

# Measurement target: Serine/threonine-protein kinase MARK1 (Homo sapiens, UniProt Q9P0L2)
# Sequence (Q9P0L2 whole entry): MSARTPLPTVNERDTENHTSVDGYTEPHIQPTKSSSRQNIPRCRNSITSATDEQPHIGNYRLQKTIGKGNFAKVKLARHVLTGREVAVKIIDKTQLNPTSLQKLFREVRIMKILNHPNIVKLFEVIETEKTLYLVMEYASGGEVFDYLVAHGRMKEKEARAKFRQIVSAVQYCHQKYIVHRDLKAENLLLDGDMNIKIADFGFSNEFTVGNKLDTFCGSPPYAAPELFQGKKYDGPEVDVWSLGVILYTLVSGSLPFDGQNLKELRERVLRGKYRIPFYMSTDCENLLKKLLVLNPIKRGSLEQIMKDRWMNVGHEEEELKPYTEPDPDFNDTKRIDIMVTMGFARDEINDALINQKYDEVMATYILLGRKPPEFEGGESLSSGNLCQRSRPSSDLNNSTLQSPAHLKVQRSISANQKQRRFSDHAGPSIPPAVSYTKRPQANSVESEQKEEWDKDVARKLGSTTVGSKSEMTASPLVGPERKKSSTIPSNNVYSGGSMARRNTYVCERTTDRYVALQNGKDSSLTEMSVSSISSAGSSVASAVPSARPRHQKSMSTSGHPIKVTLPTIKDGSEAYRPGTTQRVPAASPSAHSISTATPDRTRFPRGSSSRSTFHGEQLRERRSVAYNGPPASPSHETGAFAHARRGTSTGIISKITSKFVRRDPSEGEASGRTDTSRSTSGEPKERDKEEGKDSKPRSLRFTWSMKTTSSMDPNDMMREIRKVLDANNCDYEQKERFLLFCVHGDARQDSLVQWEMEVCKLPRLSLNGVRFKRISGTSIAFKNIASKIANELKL
# Assay notes: Inhibition of MARK1 in human HeLa cells lysate pre incubated for 15 mins followed by ADP acyl phosphate probe addition and measured after 10 mins by LC-MS/MS analysis
pIC50: −log10 of the molar value.
Result type: pIC50

1. CCOc1cc(N2CCC(O)CC2)ccc1Nc1ncc2c(n1)N(C)c1ccccc1C(=O)N2C: < 4.30

====

# Measurement target: Ribosomal protein S6 kinase alpha-1 (Homo sapiens)
# Sequence (Q15418 whole entry, the tested form may be a part): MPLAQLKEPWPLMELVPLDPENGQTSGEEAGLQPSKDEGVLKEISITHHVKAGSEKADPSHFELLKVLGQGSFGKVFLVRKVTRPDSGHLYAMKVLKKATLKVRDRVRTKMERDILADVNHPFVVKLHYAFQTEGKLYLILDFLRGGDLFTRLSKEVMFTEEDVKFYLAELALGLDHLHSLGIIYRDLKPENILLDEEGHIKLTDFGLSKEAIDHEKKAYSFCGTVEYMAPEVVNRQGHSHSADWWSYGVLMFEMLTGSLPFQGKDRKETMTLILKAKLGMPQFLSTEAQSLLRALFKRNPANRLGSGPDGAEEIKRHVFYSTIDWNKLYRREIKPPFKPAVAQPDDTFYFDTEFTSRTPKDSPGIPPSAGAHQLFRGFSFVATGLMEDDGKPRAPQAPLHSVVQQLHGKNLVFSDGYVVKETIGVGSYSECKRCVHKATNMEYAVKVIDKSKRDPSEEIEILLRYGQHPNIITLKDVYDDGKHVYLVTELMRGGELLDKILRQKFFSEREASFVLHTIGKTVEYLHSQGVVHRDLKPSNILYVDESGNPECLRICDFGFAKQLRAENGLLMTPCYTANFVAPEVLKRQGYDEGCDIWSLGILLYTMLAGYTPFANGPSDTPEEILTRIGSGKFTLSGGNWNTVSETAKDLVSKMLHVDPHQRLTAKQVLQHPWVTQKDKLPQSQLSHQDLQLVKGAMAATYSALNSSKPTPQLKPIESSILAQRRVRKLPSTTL
# Assay notes: Inhibition of RSK1 domain 2 in human HeLa cells lysate pre incubated for 15 mins followed by ATP acyl phosphate probe addition and measured after 10 mins by LC-MS/MS analysis
# Assay type: subcellular
Result type: IC50 (µM)

1. CCOc1cc(N2CCC(O)CC2)ccc1Nc1ncc2c(n1)N(C)c1ccccc1C(=O)N2C: 26

====

# Measurement target: Protein kinase C zeta type (Homo sapiens)
# Assay notes: Inhibition of PKCzeta in human HeLa cells lysate pre incubated for 15 mins followed by ADP acyl phosphate probe addition and measured after 10 mins by LC-MS/MS analysis
Result type: IC50

1. CCOc1cc(N2CCC(O)CC2)ccc1Nc1ncc2c(n1)N(C)c1ccccc1C(=O)N2C: > 50 µM

====

# Measurement target: Serine/threonine-protein kinase B-raf (Homo sapiens)
# Sequence (P15056 whole entry): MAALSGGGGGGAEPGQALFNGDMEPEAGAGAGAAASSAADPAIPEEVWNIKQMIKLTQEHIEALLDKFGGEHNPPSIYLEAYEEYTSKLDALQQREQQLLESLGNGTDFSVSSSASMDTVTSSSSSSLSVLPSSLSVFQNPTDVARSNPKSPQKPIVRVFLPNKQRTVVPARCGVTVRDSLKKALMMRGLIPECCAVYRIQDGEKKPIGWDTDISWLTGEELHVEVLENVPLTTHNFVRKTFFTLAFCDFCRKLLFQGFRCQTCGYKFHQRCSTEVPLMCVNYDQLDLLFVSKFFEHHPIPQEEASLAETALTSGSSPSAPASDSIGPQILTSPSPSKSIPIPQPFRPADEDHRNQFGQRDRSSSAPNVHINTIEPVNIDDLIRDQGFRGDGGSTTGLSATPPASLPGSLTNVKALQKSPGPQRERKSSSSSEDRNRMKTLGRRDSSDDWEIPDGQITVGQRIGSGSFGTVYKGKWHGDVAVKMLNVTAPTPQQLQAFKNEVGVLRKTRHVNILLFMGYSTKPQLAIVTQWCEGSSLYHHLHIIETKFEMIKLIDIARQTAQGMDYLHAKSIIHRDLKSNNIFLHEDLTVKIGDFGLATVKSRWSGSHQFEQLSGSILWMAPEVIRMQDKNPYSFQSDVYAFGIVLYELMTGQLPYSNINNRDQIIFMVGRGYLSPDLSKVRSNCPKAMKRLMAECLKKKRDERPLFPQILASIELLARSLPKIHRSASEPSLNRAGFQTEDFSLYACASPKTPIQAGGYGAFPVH
# Assay notes: Inhibition of BRAF in human HeLa cells lysate pre incubated for 15 mins followed by ADP acyl phosphate probe addition and measured after 10 mins by LC-MS/MS analysis
# Type: subcellular
Result type: IC50

1) CCOc1cc(N2CCC(O)CC2)ccc1Nc1ncc2c(n1)N(C)c1ccccc1C(=O)N2C: > 50 µM

====

# Measurement target: Serine/threonine-protein kinase TAO2 (Homo sapiens, UniProt Q9UL54)
# Sequence (Q9UL54 whole entry): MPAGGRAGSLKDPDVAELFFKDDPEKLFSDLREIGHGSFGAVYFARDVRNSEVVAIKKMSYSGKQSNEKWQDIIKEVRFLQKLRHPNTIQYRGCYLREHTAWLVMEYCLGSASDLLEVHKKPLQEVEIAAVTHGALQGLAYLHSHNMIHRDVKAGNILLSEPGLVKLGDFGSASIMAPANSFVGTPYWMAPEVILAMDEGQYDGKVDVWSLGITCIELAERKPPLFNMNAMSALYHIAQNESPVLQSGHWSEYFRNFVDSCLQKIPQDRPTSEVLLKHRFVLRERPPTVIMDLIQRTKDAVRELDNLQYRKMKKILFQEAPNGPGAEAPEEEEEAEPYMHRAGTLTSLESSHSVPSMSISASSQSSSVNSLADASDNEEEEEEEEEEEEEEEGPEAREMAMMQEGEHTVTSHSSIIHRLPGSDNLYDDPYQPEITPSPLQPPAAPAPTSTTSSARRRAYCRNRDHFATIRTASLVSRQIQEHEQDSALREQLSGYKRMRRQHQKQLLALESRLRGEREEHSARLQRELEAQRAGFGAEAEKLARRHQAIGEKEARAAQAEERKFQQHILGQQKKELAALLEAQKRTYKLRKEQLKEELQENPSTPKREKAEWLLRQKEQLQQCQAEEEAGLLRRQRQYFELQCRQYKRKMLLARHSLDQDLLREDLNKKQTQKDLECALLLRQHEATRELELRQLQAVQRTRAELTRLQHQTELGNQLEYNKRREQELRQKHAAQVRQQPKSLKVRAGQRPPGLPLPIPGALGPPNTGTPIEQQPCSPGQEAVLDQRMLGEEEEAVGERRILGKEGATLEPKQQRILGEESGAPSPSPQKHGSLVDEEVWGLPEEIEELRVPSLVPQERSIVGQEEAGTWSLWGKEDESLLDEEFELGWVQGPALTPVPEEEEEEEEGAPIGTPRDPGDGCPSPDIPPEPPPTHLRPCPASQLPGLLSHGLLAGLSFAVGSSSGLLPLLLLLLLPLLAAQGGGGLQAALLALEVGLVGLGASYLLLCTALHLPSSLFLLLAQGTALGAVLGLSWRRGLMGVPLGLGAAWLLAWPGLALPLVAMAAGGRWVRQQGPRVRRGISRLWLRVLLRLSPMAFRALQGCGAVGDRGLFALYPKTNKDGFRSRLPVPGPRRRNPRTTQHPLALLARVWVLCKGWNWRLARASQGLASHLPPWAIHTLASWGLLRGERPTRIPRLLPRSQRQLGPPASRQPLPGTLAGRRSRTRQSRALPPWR
# Assay notes: Inhibition of TAO2 in human HeLa cells lysate pre incubated for 15 mins followed by ATP acyl phosphate probe addition and measured after 10 mins by LC-MS/MS analysis
pIC50: −log10 of the molar value.
Result type: pIC50

1. CCOc1cc(N2CCC(O)CC2)ccc1Nc1ncc2c(n1)N(C)c1ccccc1C(=O)N2C: < 4.30

====

# Assay notes: Inhibition of PCTAIRE2/ICK in human HeLa cells lysate pre incubated for 15 mins followed by ADP acyl phosphate probe addition and measured after 10 mins by LC-MS/MS analysis
# Type: subcellular
pIC50: −log10 of the molar value.
Result type: pIC50

1) CCOc1cc(N2CCC(O)CC2)ccc1Nc1ncc2c(n1)N(C)c1ccccc1C(=O)N2C: < 4.30

====

# Measurement target: Aurora kinase A (Homo sapiens)
# Sequence (O14965 whole entry): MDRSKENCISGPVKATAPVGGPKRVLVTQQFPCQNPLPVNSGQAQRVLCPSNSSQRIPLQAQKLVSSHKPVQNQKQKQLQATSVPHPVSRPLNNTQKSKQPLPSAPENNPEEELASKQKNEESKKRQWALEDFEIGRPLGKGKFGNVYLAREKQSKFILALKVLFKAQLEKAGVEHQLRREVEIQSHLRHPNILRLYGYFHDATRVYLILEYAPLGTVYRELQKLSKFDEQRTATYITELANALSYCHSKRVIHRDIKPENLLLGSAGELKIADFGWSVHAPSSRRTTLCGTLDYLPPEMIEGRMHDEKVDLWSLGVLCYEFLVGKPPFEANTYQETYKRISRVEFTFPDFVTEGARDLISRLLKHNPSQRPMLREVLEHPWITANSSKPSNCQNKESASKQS
# Assay notes: Inhibition of AURA in human HeLa cells lysate pre incubated for 15 mins followed by ATP acyl phosphate probe addition and measured after 10 mins by LC-MS/MS analysis
Result type: IC50

1. CCOc1cc(N2CCC(O)CC2)ccc1Nc1ncc2c(n1)N(C)c1ccccc1C(=O)N2C: > 50 µM

====

# Measurement target: Hepatocyte growth factor receptor (Homo sapiens, UniProt P08581)
# Sequence (P08581 whole entry): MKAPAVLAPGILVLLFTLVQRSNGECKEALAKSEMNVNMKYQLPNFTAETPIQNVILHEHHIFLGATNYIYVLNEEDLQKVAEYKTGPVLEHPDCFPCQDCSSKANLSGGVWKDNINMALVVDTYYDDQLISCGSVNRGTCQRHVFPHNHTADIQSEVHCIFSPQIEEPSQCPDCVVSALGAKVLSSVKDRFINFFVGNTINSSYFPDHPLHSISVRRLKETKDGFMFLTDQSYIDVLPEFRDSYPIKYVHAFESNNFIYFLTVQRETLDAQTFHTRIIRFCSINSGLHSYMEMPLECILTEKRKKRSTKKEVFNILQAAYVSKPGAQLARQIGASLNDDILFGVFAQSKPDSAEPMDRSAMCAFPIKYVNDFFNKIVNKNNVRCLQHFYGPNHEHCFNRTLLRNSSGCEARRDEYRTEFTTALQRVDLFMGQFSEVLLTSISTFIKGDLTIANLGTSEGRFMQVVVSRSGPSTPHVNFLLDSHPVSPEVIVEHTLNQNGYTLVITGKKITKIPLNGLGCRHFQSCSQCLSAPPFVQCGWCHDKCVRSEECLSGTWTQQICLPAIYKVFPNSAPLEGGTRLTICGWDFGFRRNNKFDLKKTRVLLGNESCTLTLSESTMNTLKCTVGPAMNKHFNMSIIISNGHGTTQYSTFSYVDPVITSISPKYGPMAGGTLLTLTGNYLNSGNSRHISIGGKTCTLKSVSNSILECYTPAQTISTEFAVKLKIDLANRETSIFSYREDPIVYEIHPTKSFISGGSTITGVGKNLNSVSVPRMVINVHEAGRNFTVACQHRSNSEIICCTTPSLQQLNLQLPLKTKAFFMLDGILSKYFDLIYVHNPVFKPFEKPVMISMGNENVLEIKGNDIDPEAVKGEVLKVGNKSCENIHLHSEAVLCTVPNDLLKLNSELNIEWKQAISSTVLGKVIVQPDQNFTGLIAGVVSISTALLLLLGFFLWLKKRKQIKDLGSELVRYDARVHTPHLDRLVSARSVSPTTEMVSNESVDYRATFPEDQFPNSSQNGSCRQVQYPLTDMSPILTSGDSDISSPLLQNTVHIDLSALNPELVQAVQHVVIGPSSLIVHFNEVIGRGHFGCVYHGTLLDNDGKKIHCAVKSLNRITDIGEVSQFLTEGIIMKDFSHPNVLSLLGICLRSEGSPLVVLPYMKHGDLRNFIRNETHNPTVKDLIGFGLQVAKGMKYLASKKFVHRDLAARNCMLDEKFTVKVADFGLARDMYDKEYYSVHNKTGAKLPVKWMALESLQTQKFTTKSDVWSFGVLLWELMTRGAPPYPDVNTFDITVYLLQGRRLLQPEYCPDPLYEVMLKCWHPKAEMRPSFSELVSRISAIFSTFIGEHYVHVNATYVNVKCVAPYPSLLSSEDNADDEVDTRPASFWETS
# Assay notes: Inhibition of MET in human HeLa cells lysate pre incubated for 15 mins followed by ATP acyl phosphate probe addition and measured after 10 mins by LC-MS/MS analysis
pIC50: −log10 of the molar value.
Result type: pIC50

1. CCOc1cc(N2CCC(O)CC2)ccc1Nc1ncc2c(n1)N(C)c1ccccc1C(=O)N2C: < 4.30

====

# Measurement target: Serine/threonine-protein kinase D2 (Homo sapiens, UniProt Q9BZL6)
# Assay notes: Inhibition of PKD2 in human HeLa cells lysate pre incubated for 15 mins followed by ADP acyl phosphate probe addition and measured after 10 mins by LC-MS/MS analysis
pIC50: −log10 of the molar value.
Result type: pIC50

1. CCOc1cc(N2CCC(O)CC2)ccc1Nc1ncc2c(n1)N(C)c1ccccc1C(=O)N2C: < 4.30

====

# Measurement target: Ribosomal protein S6 kinase alpha-5 (Homo sapiens, UniProt O75582)
# Sequence (O75582 whole entry, the tested form may be a part): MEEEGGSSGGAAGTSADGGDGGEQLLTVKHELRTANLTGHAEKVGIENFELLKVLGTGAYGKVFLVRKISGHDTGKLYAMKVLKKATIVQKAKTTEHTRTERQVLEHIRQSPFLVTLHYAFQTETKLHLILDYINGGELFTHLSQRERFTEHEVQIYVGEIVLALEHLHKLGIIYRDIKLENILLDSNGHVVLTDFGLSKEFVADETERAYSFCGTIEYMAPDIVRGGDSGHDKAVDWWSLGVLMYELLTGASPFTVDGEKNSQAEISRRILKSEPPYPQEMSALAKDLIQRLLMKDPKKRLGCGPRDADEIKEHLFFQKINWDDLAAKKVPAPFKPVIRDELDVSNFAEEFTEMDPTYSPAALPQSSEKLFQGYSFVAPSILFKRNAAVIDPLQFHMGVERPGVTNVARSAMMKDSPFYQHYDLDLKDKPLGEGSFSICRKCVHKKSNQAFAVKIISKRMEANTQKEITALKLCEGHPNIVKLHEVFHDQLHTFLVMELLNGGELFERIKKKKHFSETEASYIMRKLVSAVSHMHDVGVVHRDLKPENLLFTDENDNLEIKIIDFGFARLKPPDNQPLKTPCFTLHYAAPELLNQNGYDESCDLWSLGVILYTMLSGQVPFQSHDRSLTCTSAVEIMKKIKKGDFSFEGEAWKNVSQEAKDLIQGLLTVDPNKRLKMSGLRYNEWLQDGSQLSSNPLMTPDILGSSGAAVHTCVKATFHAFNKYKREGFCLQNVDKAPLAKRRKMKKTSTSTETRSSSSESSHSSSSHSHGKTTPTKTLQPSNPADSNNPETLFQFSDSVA
# Assay notes: Inhibition of MSK1 domain 1 K1 site in human HeLa cells lysate pre incubated for 15 mins followed by ADP acyl phosphate probe addition and measured after 10 mins by LC-MS/MS analysis
# Format: subcellular
pIC50: −log10 of the molar value.
Result type: pIC50

1. CCOc1cc(N2CCC(O)CC2)ccc1Nc1ncc2c(n1)N(C)c1ccccc1C(=O)N2C: < 4.30

====

# Measurement target: Serine/threonine-protein kinase PRP4 homolog (Homo sapiens, UniProt Q13523)
# Assay notes: Inhibition of PRP4 in human HeLa cells lysate pre incubated for 15 mins followed by ATP acyl phosphate probe addition and measured after 10 mins by LC-MS/MS analysis
Result type: IC50

1. CCOc1cc(N2CCC(O)CC2)ccc1Nc1ncc2c(n1)N(C)c1ccccc1C(=O)N2C: > 50 µM

====

# Measurement target: Tyrosine-protein kinase JAK1 (Homo sapiens)
# Assay notes: Inhibition of JAK1 domain 2 in human HeLa cells lysate pre incubated for 15 mins followed by ATP acyl phosphate probe addition and measured after 10 mins by LC-MS/MS analysis
# Format: subcellular
Result type: IC50

1. CCOc1cc(N2CCC(O)CC2)ccc1Nc1ncc2c(n1)N(C)c1ccccc1C(=O)N2C: > 50 µM

====

# Measurement target: Eukaryotic translation initiation factor 2-alpha kinase 3 (Homo sapiens)
# Assay notes: Inhibition of PEK in human HeLa cells lysate pre incubated for 15 mins followed by ATP acyl phosphate probe addition and measured after 10 mins by LC-MS/MS analysis
Result type: IC50

1. CCOc1cc(N2CCC(O)CC2)ccc1Nc1ncc2c(n1)N(C)c1ccccc1C(=O)N2C: > 50 µM

Provenance of the data: ChEMBL document CHEMBL5661979
